- Tested on: NIH3T3 mouse fibroblast
- test_summary: Cytotoxicity MTT assay, NIH3T3
- Type: cell-based
- assay_conditions: Table B
pIC50: −log10 of the molar value.
quantity_measured: pIC50

I'd like to know its pIC50. The compound in question is COc1cc(Cl)c(/C=C2\S/C(=N/c3cccc(C(=O)O)c3)N(C)C2=O)cc1OC [AV38]
< 4.70

====

// reported IC50 at 72 h per item
- test_summary: Cytotoxicity MTT assay, MDA-MB-435
- Format: cell-based, human
- assay_conditions: human, MDA-MB-435 breast cancer cells; MDA-MB-435, Table 5

COc1cc(Cl)c(/C=C2\S/C(=N/c3cccc(C(=O)O)c3)N(C)C2=O)cc1OC [AV38]
> 20 µM
CCOc1ccc(/N=C2/S/C(=C\c3ccc(N(C)C)cc3)C(=O)N2CC)cc1 [AV35]
> 20 µM
O=C(O)c1cccc(-c2ccc(/C=N/Nc3nc4nonc4nc3Nc3ccc(F)cc3)o2)c1 [AV30]
8 µM
CC1=NN(c2ccc(C(=O)O)cc2)C(=O)/C1=C/c1ccc(-c2ccc(S(N)(=O)=O)cc2)o1 [AV19]
> 20 µM

Continue with the next compound.
What measured IC50 at 72 h goes with CCOc1cc(/C=C2\S/C(=N/c3ccc(C(=O)O)cc3)N(C)C2=O)ccc1O [AV26] ?
0.34 µM

====

- assay_system: αvβ3 integrin (Homo sapiens, UniProt P05106+P06756)
- Construct: endogenous in cells; host or cells: NCI-H1975 cells (non-small cell lung cancer), whole cells in suspension
- test_summary: Receptor binding assay, competitive binding with 125I-labeled echistatin on the surface of NCI-H1975 cells
- assay_conditions: 125I-echistatin competition, NCI-H1975 cells; same value restated in pM; read-out: αvβ3 integrin binding affinity (IC50)
quantity_measured: IC50 (pM)
# value in pM; strip the unit string

Need IC50 of COc1cc(Cl)c(/C=C2\S/C(=N/c3cccc(C(=O)O)c3)N(C)C2=O)cc1OC , thanks.
30

====

- test_summary: Cytotoxicity MTT assay, MCF7
- Type: cell-based, human
- assay_conditions: human, MCF-7 breast cancer cells; MCF-7, Table 5
quantity_measured: IC50 at 72 h

Some compounds with recorded IC50 at 72 h:
O=C(O)c1cccc(-c2ccc(/C=N/Nc3nc4nonc4nc3Nc3ccc(F)cc3)o2)c1
19 µM
CCOc1cc(/C=C2\S/C(=N/c3ccc(C(=O)O)cc3)N(C)C2=O)ccc1O
> 20 µM
CS(=O)(=O)Nc1ccc(C2=NN(C(=O)CCCC(=O)O)C(c3ccco3)C2)cc1 (stereo not drawn)
> 20 µM
CC1=NN(c2ccc(C(=O)O)cc2)C(=O)/C1=C/c1ccc(-c2ccc(S(N)(=O)=O)cc2)o1
19 µM

Recorded IC50 at 72 h for CCOc1ccc(/N=C2/S/C(=C\c3ccc(N(C)C)cc3)C(=O)N2CC)cc1 , please?
> 20 µM

Which value of IC50 at 72 h has been reported for Nc1nc(O)c2nc(CCCNc3ccc(C(=O)NC(CCC(=O)O)C(=O)O)cc3)cnc2n1 (stereo not drawn) in the records?
> 20 µM

====

- assay_system: αvβ3 integrin (Homo sapiens, UniProt P05106+P06756)
- Construct: endogenous in cells; host or cells: NCI-H1975 cells (non-small cell lung cancer), whole cells in suspension
- test_summary: Receptor binding assay, competitive binding with 125I-labeled echistatin on the surface of NCI-H1975 cells
- assay_conditions: 125I-echistatin competition, NCI-H1975 cells; read-out: αvβ3 binding affinity (IC50)
- Experimental: Receptor Binding Assay. […] 96-Well multiscreen DV plate (filter pore size: 0.65 μm, Millipore, Billerica, Mass.) was incubated with ^125I-echistatin (50,000 cpm/well) in the presence of increasing concentrations of αvβ3 antagonists. The total incubation volume was adjusted to 200 μL. […] The hydrophilic PVDF filters were collected, and the radioactivity was determined using NaI(Tl) gamma counter (Packard, Meriden, Conn.). […]
Here, each record is paired with measured IC50 data.
Answer shape: numeric part, then the unit.

# annotated cases, reported IC50 shown
CS(=O)(=O)Nc1ccc(C2=NN(C(=O)CCCC(=O)O)C(c3ccco3)C2)cc1 (centres unmarked)
605 nM
Nc1nc(O)c2nc(CCCNc3ccc(C(=O)NC(CCC(=O)O)C(=O)O)cc3)cnc2n1 (centres unmarked)
52 nM
CCOc1ccc(/N=C2/S/C(=C\c3ccc(N(C)C)cc3)C(=O)N2CC)cc1
24 nM
CCOc1cc(/C=C2\S/C(=N/c3ccc(C(=O)O)cc3)N(C)C2=O)ccc1O
240 nM

# context switch: different compound, same IC50
Return reported IC50; argument: Cc1ccc(NC(=O)CN2C(=O)N/C(=C\c3cccn3-c3cccc(C(=O)O)c3)C2=O)cc1
18 nM

====

- test_summary: Cytotoxicity MTT assay, NCI-H1975
- Type: cell-based, human
- assay_conditions: human, NCI-H1975 non-small cell lung cancer cells; NCI-H1975, Table 5
- Procedure: Cell Culture. […] Cytotoxicity Assay. Cytotoxicity was assessed by 3-(4,5-dimethylthiazol-2-yl)-2,5-diphenyltetrazolium bromide (MTT) assay as previously described.^41, 54 Briefly, cells were seeded in 96-well microtiter plates and allowed to attach. […] After removal of the medium, DMSO was added and the absorbance was read at 570 nm. […] The IC50 was then determined for each drug from a plot of log (drug concentration) versus percentage of cell kill. […]
The following molecules are listed with their measured IC50 at 72 h values.

// worked examples, IC50 at 72 h included
CCOc1ccc(/N=C2/S/C(=C\c3ccc(N(C)C)cc3)C(=O)N2CC)cc1 [AV35]
> 20 µM
COc1cc(Cl)c(/C=C2\S/C(=N/c3cccc(C(=O)O)c3)N(C)C2=O)cc1OC [AV38]
> 20 µM

Okay, now this molecule:
Give the measured IC50 at 72 h of CCOc1cc(/C=C2\S/C(=N/c3ccc(C(=O)O)cc3)N(C)C2=O)ccc1O [AV26] .
> 20 µM

====

- test_summary: Cytotoxicity MTT assay, HEY
- Assay type: cell-based, human
- assay_conditions: human, HEY ovarian carcinoma cells; HEY, Table 5
- Procedure: Cell Culture. […] Cytotoxicity Assay. Cytotoxicity was assessed by 3-(4,5-dimethylthiazol-2-yl)-2,5-diphenyltetrazolium bromide (MTT) assay as previously described.^41, 54 Briefly, cells were seeded in 96-well microtiter plates and allowed to attach. […] After removal of the medium, DMSO was added and the absorbance was read at 570 nm. […] The IC50 was then determined for each drug from a plot of log (drug concentration) versus percentage of cell kill. […]
quantity_measured: IC50 at 72 h

Completed entries (count: 8):
Cc1ccc(NC(=O)CN2C(=O)N/C(=C\c3cccn3-c3cccc(C(=O)O)c3)C2=O)cc1 [AV27]
> 20 µM
O=C(O)c1cccc(-c2ccc(/C=N/Nc3nc4nonc4nc3Nc3ccc(F)cc3)o2)c1 [AV30]
7 µM
O=C(O)c1ccc(-c2ccc(/C=N/Nc3nc(Nc4ccccc4)nc(Nc4ccccc4)n3)o2)cc1 [AV10]
21 µM
CCOc1cc(/C=C2\S/C(=N/c3ccc(C(=O)O)cc3)N(C)C2=O)ccc1O [AV26]
13 µM
COc1cc(Cl)c(/C=C2\S/C(=N/c3cccc(C(=O)O)c3)N(C)C2=O)cc1OC [AV38]
> 20 µM
CC1=NN(c2ccc(C(=O)O)cc2)C(=O)/C1=C/c1ccc(-c2ccc(S(N)(=O)=O)cc2)o1 [AV19]
> 20 µM
CCOc1ccc(/N=C2/S/C(=C\c3ccc(N(C)C)cc3)C(=O)N2CC)cc1 [AV35]
> 20 µM
CN(C)c1ccc(/C=C2\SC(=Nc3ccc(O)cc3)NC2=O)cc1 [AV34]
> 20 µM

IC50 at 72 h lookup needed for CS(=O)(=O)Nc1ccc(C2=NN(C(=O)CCCC(=O)O)C(c3ccco3)C2)cc1 (stereo not shown) [AV32] , thanks.
> 20 µM

Request the reported IC50 at 72 h associated with Nc1nc(O)c2nc(CCCNc3ccc(C(=O)NC(CCC(=O)O)C(=O)O)cc3)cnc2n1 (stereo not shown) [AV3]
> 20 µM

====

- Test system: NCI-H1975 lung cancer cell-line
- test_summary: Cytotoxicity MTT assay, NCI-H1975
- Type: cell-based, human
- assay_conditions: Table B
pIC50: −log10 of the molar value.
quantity_measured: pIC50

# query: pIC50 | item COc1cc(Cl)c(/C=C2\S/C(=N/c3cccc(C(=O)O)c3)N(C)C2=O)cc1OC [AV38] | system: NCI-H1975 lung cancer cell-line
< 4.70

====

- Test system: MDA-MB-435 breast cancer cell line
- test_summary: Cytotoxicity MTT assay, MDA-MB-435
- Type: cell-based, human
- assay_conditions: Table B
pIC50: −log10 of the molar value.
quantity_measured: pIC50

Quick check: pIC50 of COc1cc(Cl)c(/C=C2\S/C(=N/c3cccc(C(=O)O)c3)N(C)C2=O)cc1OC ?
< 4.70
